tested on: Crude diglycosidase; assay: Examination of substrate concentration in the conversion into isoflavone aglycons by diglycosidase using soybean materials; format: biochemical, Penicillium multicolor IAM7153; conditions: soymilk, substrate concentration 2%, heat treatment of enzyme no, reaction time 0 h;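 also: percent of the isoflavone family total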
Measurement Name: Decomposition efficiency: ratio of each glycoside/aglycon within its isoflavone family (%)

Answered cases to consult:
structure_smiles=COc1cc2c(=O)c(-c3ccc(O)cc3)coc2cc1O[C@@H]1O[C@H](CO)[C@@H](O)[C@H](O)[C@H]1O readout_units=% value=71.8
structure_smiles=O=c1c(-c2ccc(O)cc2)coc2cc(O[C@@H]3O[C@H](CO)[C@@H](O)[C@H](O)[C@H]3O)ccc12 readout_units=% value=53.5
structure_smiles=COc1cc2c(=O)c(-c3ccc(O)cc3)coc2cc1O[C@@H]1O[C@H](COC(=O)CC(=O)O)[C@@H](O)[C@H](O)[C@H]1O readout_units=% value=28.2
structure_smiles=O=C(O)CC(=O)OC[C@H]1O[C@@H](Oc2ccc3c(=O)c(-c4ccc(O)cc4)coc3c2)[C@H](O)[C@@H](O)[C@@H]1O readout_units=% value=32.2

[P] O=C(O)CC(=O)OC[C@H]1O[C@@H](Oc2cc(O)c3c(=O)c(-c4ccc(O)cc4)coc3c2)[C@H](O)[C@@H](O)[C@@H]1O
[Q] O=c1c(-c2ccc(O)cc2)coc2cc(O[C@@H]3O[C@H](CO)[C@@H](O)[C@H](O)[C@H]3O)cc(O)c12
[in] Could you kindly indicate whether P or Q has the higher Decomposition efficiency: ratio of each glycoside/aglycon within its isoflavone family value? // caller expects the label of the chosen entry
[out] Q
(Q: 54.5%, P: 35.0%)

src = patent US7118895B2
